test system: Staphylococcus aureus; assay: Antibacterial activity against Staphylococcus aureus DSM 1104 assessed as diamater of growth inhibition zone after 24 hr by agar cup diffusion method; format: functional; further: test concentration or dose not given here
quantity kind: diameter of the inhibition zone (DIZ) (mm)
Report only the number, with the unit mm understood.

Consider the reported diameter of the inhibition zone (DIZ) for these compounds:
{"columns": ["mol", "diameter of the inhibition zone (DIZ) / mm"],
 "data": [
  ["COc1ccc(/C=N/N=c2\\scc(C3=CC(=O)C=CC3=O)n2-c2ccc(C)cc2)cc1", 16],
  ["COc1cc(/C=N/N=c2\\scc(-c3cc(O)ccc3O)n2-c2ccc(C)cc2)ccc1O", 15],
  ["COc1ccc(/C=N/N=c2\\scc(-c3cc(O)ccc3O)n2-c2ccc(C)cc2)cc1", 15],
  ["COc1ccc(OC)c(/C=N/N=c2\\scc(-c3cc(O)ccc3O)n2-c2ccc(Cl)cc2)c1", 13],
  ["COc1ccc(/C=N/N=c2\\scc(C3=CC(=O)C=CC3=O)n2-c2ccccc2)cc1O", 14]
]}

Q: Look up diameter of the inhibition zone (DIZ) with Staphylococcus aureus for this compound: COc1cc(/C=N/N=c2\scc(C3=CC(=O)C=CC3=O)n2-c2ccc(Cl)cc2)ccc1O
Ans: 16

Q: What do we get for COc1ccc(/C=N/N=c2\scc(-c3cc(O)ccc3O)n2-c2ccc(Cl)cc2)cc1 ?
Ans: 15

Q: What do we get for COc1ccc(/C=N/N=c2\scc(-c3cc(O)ccc3O)n2-c2ccc(Cl)cc2)cc1O ?
Ans: 14

Q: What do we get for COc1ccc(/C=N/N=c2\scc(C3=CC(=O)C=CC3=O)n2-c2ccc(Cl)cc2)cc1 ?
Ans: 14

###

system: Bacillus subtilis; test: Antibacterial activity against Bacillus subtilis ATCC 6633 assessed as growth inhibition after 24 hr by two fold serial dilution method; assay type: functional; conditions: ATCC 6633, 24 h
quantity kind: MIC (µg/mL)
Report only the number, with the unit µg/mL understood.

{"columns": ["mol", "target of assay", "MIC, µg/mL"],
 "data": [
  ["COc1ccc(/C=N/N=c2\\scc(C3=CC(=O)C=CC3=O)n2-c2ccc(Cl)cc2)cc1O", "Bacillus subtilis", 25],
  ["COc1ccc(OC)c(/C=N/N=c2\\scc(-c3cc(O)ccc3O)n2-c2ccccc2)c1", "Bacillus subtilis", 12.5],
  ["COc1ccc(/C=N/N=c2\\scc(C3=CC(=O)C=CC3=O)n2-c2ccccc2)cc1", "Bacillus subtilis", 50],
  ["COc1ccc(/C=N/N=c2\\scc(-c3cc(O)ccc3O)n2-c2ccc(Cl)cc2)cc1O", "Bacillus subtilis", 50],
  ["COc1ccc(OC)c(/C=N/N=c2\\scc(C3=CC(=O)C=CC3=O)n2-c2ccccc2)c1", "Bacillus subtilis", 50],
  ["COc1ccc(/C=N/N=c2\\scc(-c3cc(O)ccc3O)n2-c2ccccc2)cc1O", "Bacillus subtilis", 12.5]
]}

Q: Quick check: MIC of COc1ccc(OC)c(/C=N/N=c2\scc(-c3cc(O)ccc3O)n2-c2ccc(C)cc2)c1 ?
Ans: 12.5

###

system: Pseudomonas aeruginosa; assay: Antibacterial activity against Pseudomonas aeruginosa ATCC 10145 assessed as diamater of growth inhibition zone after 24 hr by agar cup diffusion method; assay type: functional; further: test concentration or dose not given here
quantity kind: diameter of the inhibition zone (DIZ) (mm)
Report only the number, with the unit mm understood.

Consider the reported diameter of the inhibition zone (DIZ) for these molecules:
{"columns": ["mol", "u", "result number"],
 "data": [
  ["COc1ccc(OC)c(/C=N/N=c2\\scc(-c3cc(O)ccc3O)n2-c2ccccc2)c1", "mm", 16],
  ["COc1ccc(/C=N/N=c2\\scc(-c3cc(O)ccc3O)n2-c2ccc(C)cc2)cc1O", "mm", 13],
  ["COc1cc(/C=N/N=c2\\scc(-c3cc(O)ccc3O)n2-c2ccc(C)cc2)ccc1O", "mm", 16],
  ["COc1ccc(/C=N/N=c2\\scc(C3=CC(=O)C=CC3=O)n2-c2ccc(Cl)cc2)cc1", "mm", 16],
  ["COc1ccc(/C=N/N=c2\\scc(C3=CC(=O)C=CC3=O)n2-c2ccccc2)cc1O", "mm", 16]
]}

Q: Quick check: diameter of the inhibition zone (DIZ) of COc1ccc(OC)c(/C=N/N=c2\scc(C3=CC(=O)C=CC3=O)n2-c2ccc(Cl)cc2)c1 ?
Ans: 16

Q: What do we get for COc1ccc(/C=N/N=c2\scc(-c3cc(O)ccc3O)n2-c2ccc(Cl)cc2)cc1O ?
Ans: 14

Q: What do we get for COc1cc(/C=N/N=c2\scc(-c3cc(O)ccc3O)n2-c2ccccc2)ccc1O ?
Ans: 15

Q: What do we get for COc1cc(/C=N/N=c2\scc(C3=CC(=O)C=CC3=O)n2-c2ccccc2)ccc1O ?
Ans: 14

Ref: ChEMBL document CHEMBL3044795
